Please go through the items and note down their pIC50.
- System: A2780 cells
- methodSummary: Cell proliferation assay (A2780)
- Type: cell-based
- conditionSummary: Homo sapiens, 168 h, 7 days
- Experimental: Cells are counted, diluted to desired density and 40 μL of cell suspension is added into each 384-well tissue-culture treated plates. Plates are incubated in Tissue Culture incubator at 37° C./5% C02 overnight. Next day, 40 nl test compounds that are prepared from source plates are transferred to the seeded cells from overnight. Plates are incubated at 37° C./5% C02 for a total of 7 days. […]
pIC50: −log10 of the molar value.

Given the molecule O=C(NC(C(=O)N1CCC(OC2CCN(CC(=O)N3CCN(C(=O)c4cc(Cc5n[nH]c(=O)c6ccccc56)ccc4F)CC3)CC2)CC1)C1CCCCC1)c1cccc(C2CCCN(C(=O)CNCc3ccc(F)cc3F)C2)c1 (stereo not drawn) [Compound I-369] , write its reported pIC50.
7.00 to 8.00

Read the entry CC(C)(C)C(=O)N1CCC[C@@H](c2cccc(C(=O)N[C@@H](C(=O)N3C4CCC3CC(OC3CCN(CC(=O)N5CCN(C(=O)c6cc(Cc7n[nH]c(=O)c8ccccc78)ccc6F)CC5)CC3)C4)C3CCCCC3)c2F)C1 (stereo partly drawn) [Compound I-971] and write its reported pIC50.
7.00 to 8.00

// fetch pIC50 given entry CCc1cccc(-c2cnc(C(=O)NCCOCCNCC(=O)N3CCN(C(=O)c4cc(Cc5n[nH]c(=O)c6ccccc56)ccc4F)CC3)c(C)c2)c1 [Compound I-489]
7.00 to 8.00

###

- targetEntity: PARP1 (Homo sapiens, UniProt P09874)
- Sequence (P09874 whole entry): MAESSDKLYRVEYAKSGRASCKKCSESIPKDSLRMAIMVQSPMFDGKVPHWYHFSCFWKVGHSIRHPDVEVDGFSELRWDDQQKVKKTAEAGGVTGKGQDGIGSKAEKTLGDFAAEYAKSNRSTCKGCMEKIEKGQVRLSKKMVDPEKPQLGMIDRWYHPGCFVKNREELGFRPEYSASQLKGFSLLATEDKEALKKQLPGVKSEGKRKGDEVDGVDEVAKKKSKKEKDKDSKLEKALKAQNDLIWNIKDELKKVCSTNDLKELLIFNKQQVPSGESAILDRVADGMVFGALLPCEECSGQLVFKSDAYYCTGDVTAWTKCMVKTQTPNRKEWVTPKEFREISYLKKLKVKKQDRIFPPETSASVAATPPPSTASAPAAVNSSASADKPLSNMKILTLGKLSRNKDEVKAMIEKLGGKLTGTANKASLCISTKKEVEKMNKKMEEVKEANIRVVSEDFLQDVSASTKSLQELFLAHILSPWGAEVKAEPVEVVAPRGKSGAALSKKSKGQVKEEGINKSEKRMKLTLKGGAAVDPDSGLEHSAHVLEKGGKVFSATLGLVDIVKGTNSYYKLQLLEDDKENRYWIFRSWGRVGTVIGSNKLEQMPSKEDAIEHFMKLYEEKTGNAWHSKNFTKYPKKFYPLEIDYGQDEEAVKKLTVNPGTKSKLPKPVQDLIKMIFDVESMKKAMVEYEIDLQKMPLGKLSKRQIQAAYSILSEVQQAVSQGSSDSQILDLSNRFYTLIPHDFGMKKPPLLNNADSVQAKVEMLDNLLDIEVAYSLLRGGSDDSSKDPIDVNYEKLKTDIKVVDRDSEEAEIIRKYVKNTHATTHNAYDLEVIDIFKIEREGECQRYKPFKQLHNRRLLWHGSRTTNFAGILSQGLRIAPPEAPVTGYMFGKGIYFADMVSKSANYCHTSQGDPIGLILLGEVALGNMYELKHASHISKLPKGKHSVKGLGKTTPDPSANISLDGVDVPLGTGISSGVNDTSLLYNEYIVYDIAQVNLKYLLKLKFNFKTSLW
- methodSummary: PARP trapping assay in U2OS cells
- Format: cell-based
- Design: endogenous in cells; host or cells: U2OS
- conditionSummary: U2OS cells, MMS, 4 hrs; read-out: PARP Trapping (U2OS)
pIC50: −log10 of the molar value.
Task for the reader: assign each of the following compounds its reported pIC50.

Name the recorded pIC50 of the item O=C(CN1CCC(OC2CCN(C(=O)c3c(F)cc(-c4ccnnc4)cc3F)CC2)CC1)N1CCN(C(=O)c2cc(Cc3n[nH]c(=O)c4ccccc34)ccc2F)CC1 [Compound I-772] in your answer.
> 8.00

Return pIC50 for the following compound: CC1(C(=O)N2CCC(c3cccc(C(=O)N[C@@H](C(=O)N4CCC(OC5CCN(CC(=O)N6CCN(C(=O)c7cc(Cc8n[nH]c(=O)c9ccccc89)ccc7F)CC6)CC5)CC4)C4CCCCC4)c3F)CC2)CC1 [Compound I-883]
7.00 to 8.00

Report pIC50 for CCc1cccc(-c2cnc(C(=O)N3CCC(CN4CCN(CC(=O)N5CCN(C(=O)c6cc(Cc7n[nH]c(=O)c8ccccc78)ccc6F)CC5)CC4)CC3)c(NC(=O)CN3CCOCC3)c2)c1 [Compound I-333]
6.00 to 7.00

###

- Test system: MDA-MB-436 cells
- methodSummary: Cell proliferation assay (MDA-MB-436)
- Type: cell-based
- conditionSummary: Homo sapiens, 168 h, 7 days
pIC50: −log10 of the molar value.
measuredMetric: pIC50

Identify measured pIC50 associated with CCc1cccc(-c2cc(F)c(C(=O)N3CC4CCC3CC4CN3CCN(CC(=O)N4CCN(C(=O)c5cc(Cc6n[nH]c(=O)c7ccccc67)ccc5F)CC4)CC3)c(F)c2)c1 (centres unmarked)
> 8.00

Please report pIC50 for the following compound: `O=C(CN1CCC(OC2CCN(C(=O)c3c(F)cc(-c4cccnn4)cc3F)CC2)CC1)N1CCN(C(=O)c2cc(Cc3n[nH]c(=O)c4ccccc34)ccc2F)CC1`
> 8.00

Entry `CCc1cccc(-c2cnc(C(=O)NCCCCCNCC(=O)N3CCN(C(=O)c4cc(Cc5n[nH]c(=O)c6ccccc56)ccc4F)CC3)c(NC(=O)CNCc3cccc(C)c3)c2)c1` needs its pIC50 filled in; supply it.
7.00 to 8.00

Assign pIC50 to the following record: `CC(C)(C)OC(=O)N[C@@H](C(=O)N1CCC(C)(OC2CCN(CC(=O)N3CCN(C(=O)c4cc(Cc5n[nH]c(=O)c6ccccc56)ccc4F)CC3)CC2)CC1)C1CCCCC1`
> 8.00

Provide measured pIC50 value, entry: `C[C@@H]1CN(CC2CCN(CC(=O)N3CCN(C(=O)c4cc(Cc5n[nH]c(=O)c6ccccc56)ccc4F)CC3)CC2)CCN1C(=O)[C@H](NC(=O)c1cccc([C@@H]2CCCN(C(=O)C(C)(C)C)C2)c1)C1CCCCC1`
7.00 to 8.00

Please indicate pIC50 recorded for CC(C)(C)C(=O)N1CCC[C@@H](c2cccc(C(=O)N[C@@H](C(=O)N3C4CCC3CC(OC3CCN(CC(=O)N5CCN(C(=O)c6cc(Cc7n[nH]c(=O)c8ccccc78)ccc6F)CC5)CC3)C4)C3CCCCC3)c2F)C1 (some centres unmarked)
> 8.00

Identify the reported pIC50 for the following entry. `CCc1cccc(-c2cnc(C(=O)N3CCN(CC4CCN(CC(=O)N5CCN(C(=O)c6cc(Cc7n[nH]c(=O)c8ccccc78)ccc6F)CC5)CC4)CC3)c(NC(=O)CNCc3ccncn3)c2)c1`
7.00 to 8.00

Give the value of pIC50 reported for the following: O=C(N[C@@H](C(=O)N1CCN(CC2CCN(CC(=O)N3CCN(C(=O)c4cc(Cc5n[nH]c(=O)c6ccccc56)ccc4F)CC3)CC2)CC1)C1CCCCC1)c1cccc(C2CCCN(C(=O)C3CC3)C2)c1 (some centres unmarked)
7.00 to 8.00

Answer with the recorded pIC50 of O=C(N[C@@H](C(=O)N1CCC(CC(=O)N2CCN(C(=O)c3cc(Cc4n[nH]c(=O)c5ccccc45)ccc3F)CC2)CC1)C1CCCCC1)c1cccc(C2CCCN(C(=O)C3CC3)C2)c1F (some centres unmarked) only.
> 8.00

Using known records, supply pIC50 for `O=C(N[C@@H](C(=O)N1CCC(OC2CCN(CC(=O)N3CCN(C(=O)c4cc(Cc5n[nH]c(=O)c6ccccc56)ccc4F)CC3)CC2)CC1)C1CCCCC1)c1ccc(N2CCN(C(=O)C3CC3)CC2)cc1F`
> 8.00

Entry `CCc1cccc(-c2cc(F)c(C(=O)N3CCC(CN4CCN(CC(=O)N5CCN(C(=O)c6cc(Cc7n[nH]c(=O)c8ccccc78)ccc6F)CC5)CC4)CC3)c(F)c2)c1` needs its pIC50 filled in; supply it.
> 8.00

Provide only the value of recorded pIC50 for CC1(C(=O)N2CC(c3cccc(C(=O)N[C@@H](C(=O)N4CCC(OC5CCN(CC(=O)N6CCN(C(=O)c7cc(Cc8n[nH]c(=O)c9ccccc89)ccc7F)CC6)CC5)CC4)C4CCCCC4)c3F)CCC2(C)C)CC1 (some centres unmarked)
> 8.00

Tell us which pIC50 value is on record for `CCc1cccc(-c2cnc(C(=O)N3CCC(CN4CCN(CC(=O)N5CCN(C(=O)c6cc(Cc7n[nH]c(=O)c8ccccc78)ccc6F)CC5)CC4)CC3)c(NC(=O)CNCc3cccc(C)c3)c2)c1`
7.00 to 8.00

For the compound `CC1(OC(=O)N[C@@H](C(=O)N2CCC(OC3CCN(CC(=O)N4CCN(C(=O)c5cc(Cc6n[nH]c(=O)c7ccccc67)ccc5F)CC4)CC3)CC2)C2CCCCC2)CCC1` , report pIC50.
> 8.00

###

- Tested on: MDA-MB-436 cells
- methodSummary: Cell proliferation assay (MDA-MB-436)
- Assay type: cell-based
- conditionSummary: Homo sapiens, 168 h, 7 days
measuredMetric: IC50

Respond only with IC50 recorded for CC(C)(C)C(=O)N1CCCC(c2cccc(C(=O)N[C@@H](C(=O)N3CCC(OC4CCN(CC(=O)N5CCN(C(=O)c6cc(Cc7n[nH]c(=O)c8ccccc78)ccc6F)CC5)CC4)CC3)C3CCCCC3)c2F)C1 (stereo partly drawn)
< 10 nM

Note IC50 for the molecule shown: `CCc1cccc(-c2cnc(C(=O)NCCOCCNCC(=O)N3CCN(C(=O)c4cc(Cc5n[nH]c(=O)c6ccccc56)ccc4F)CC3)c(NC(=O)CNCc3cccc(C)c3)c2)c1`
100 to 1000 nM

Specify reported IC50 for the molecule shown: `CC(C)(C)C(=O)N1CCC[C@@](F)(c2cccc(C(=O)N[C@@H](C(=O)N3CCC(OC4CCN(CC(=O)N5CCN(C(=O)c6cc(Cc7n[nH]c(=O)c8ccccc78)ccc6F)CC5)CC4)CC3)C3CCCCC3)c2F)C1`
< 10 nM

Determine its reported IC50: CCOc1cc(OC)ccc1CNCC(=O)N1CCCC(c2cccc(C(=O)N[C@@H](C(=O)N3CCC(OC4CCN(CC(=O)N5CCN(C(=O)c6cc(Cc7n[nH]c(=O)c8ccccc78)ccc6F)CC5)CC4)CC3)C3CCCCC3)c2)C1 (stereo partly drawn)
10 to 100 nM

Indicate its recorded IC50; the molecule in question is O=C(N[C@@H](C(=O)N1CCC(OC2CCN(CC(=O)N3CCN(C(=O)c4cc(Cc5n[nH]c(=O)c6ccccc56)ccc4F)CC3)CC2)CC1)C1CCCCC1)c1cccc(C2CCCN(C(=O)C3CC3)C2)c1F (stereo partly drawn)
< 10 nM

// Input: `O=C(CN1CCC(OC2CCN(C(=O)c3c(F)cc(-c4ccnnc4)cc3F)CC2)CC1)N1CCN(C(=O)c2cc(Cc3n[nH]c(=O)c4ccccc34)ccc2F)CC1` . Output its IC50 only.
< 10 nM
